Collected Enzyme Activity Endpoint Assay (purified): Fc values appear next to each entry.
Target: pooled human IgG (human IgG1, 2, 3 and 4)
Dear colleague, please return just the value in ng/µL, with no unit written.

Solved cases below.
protein	quantitative_readout
PRT-624 (protein) MQITSVWTKGVTPLTPEQFRYNNEDVIHAPYLAHQGWYDITKAFDGKDNLLCGAATAGNMLHWWFDQNKTEIEAYLSKHPEKQKIIFNNQELFDLKAAIDTKDSQTNSQLFNYFRDKAFPNLSARQLGVMPDLVLDMFINGYYLNVFKTQSTDVNRDYDDKDKRGGIFDDVFGKGDQTTLLTARHDLKNKGLNDISTIIKQELTEGRALALSHTYANVSISHVINLWGADFNAEGNLEAIYVTDSDANASIGMKKYFVGINAHGHVAISAKKIEGENIGAQVLGLFTLSSGKDIWQKLSLEHHHHHH	251
PRT-647 (protein) MQITSVWTKGVTPLTPEQFRYNNEDVIHAPYLAHQGWYDITKAFDGKDNLLCGAATAGNMLHWWFDQNKTEIEAYLSKHPEKQKIIFNNQELFDLKAAIDTKDSQTNSQLFNYFRDKAFPNLSARQLGVMPDLVLDMFINGYYLNVFKTQSTDVNRPYQDKDKRGGIFDAVFTRGDQTTLLTNRYDLYDKGLNDISTIIKQELTEGRALALSHTYANVSISHVINLWGADFNAEGNLEAIYVTDSDANASIGMKKYFVGINAHGHVAISAKKIEGENIGAQVLGLFTLSSGKDIWQKLSLEHHHHHH	465
PRT-435 (protein) MSQTEDSESLQRLRDIEDFQAEKEKQNVVYTKWLDGVDVKDHDFRKIVDGNIAYYATPLLNGRGFYDINKDFNRDSDKCAAAVAANMFHYWLDRNRDNVDRFLRQNPEKHGIIELPDGQLKLSDFLNTYESDDGYRDKSKLFDFISNNFNGPVWTDKLLDNYINGYAYNYKYGRTIEDPTKNTSKINFFKEVFNEKILTNNHSIRNQNEFSVLLSEALYTGKAIGLSYGPAGLRHSLGHIISVWGADLDADGNVVAIYVTDSDDKKLTIGDERVGLKRYKISTDDEGRLRLTAYEETHNTGGQIRGLWTLDTGKQAWADYFDKTEQTGTDQAEQ	205

Entry PRT-650 (protein) MQITSVWTKGVTPLTPEQFRYNNEDVIHAPYLAHQGWYDITKAFDGKDNLLCGAATAGNMLHWWFDQNKTEIEAYLSKHPEKQKIIFNNQKLFDLKAAIDTKDSQTNSQLFNYFRDKAFPNLSARQLGVMPDLVLDMFINGYYLNVTKTQSTDVNRPYQTKDPRGGIFDAVFTRGDQTTLLTARHDLKNKGLNDISTIIKQELTEGRALALSHTYANVSISHVINLWGADFNAEGNLEAIYVTDSDANASIGMKKYFVGINAHGHVAISAKKIEGENIGAQVLGLFTLSSGKDIWQKLSLEHHHHHH ; Enzyme Activity Endpoint Assay (purified): Fc = 452

Per the records, this protein ( PRT-697 (protein) MTITSVWTKGVIPPTPEDFRYNNEDVLHAPYVPNQGWYDITKTFDGGDNLLCGAATAGNMLHWWFDQNKEEIERYLKKYPEKQKIIFNNQELFDVRAAINTKDSQTNSKLFNYFRDKAFPNLSARQLGVMPDLVLDMFINGYYLNLGKTQSTDVNRPYQDRDKRGGIFDHVFGRGDQTTLLTARHDLKNGGLNEISDLIKQELQSGKALALSHTYANVRINHVINLWGADFDAEGNLIAIYVTDSDANSSIGMKKYYVGVNANGKVAISAKKIEGDNIGAQVLGLFTLSTGQEIWQKLSLEHHHHHH ) has Enzyme Activity Endpoint Assay (purified): Fc equal to 430

Entry PRT-406 (protein) MVTSVWTKGVTPPADFTQGEDVFHAPYVANQGWYDITKTFNRKDDLLCGAATAGNMLHWWFDQNKEYIEAYLKKHPEKQKIMFGDQELLDVRKAINTKGSQKNSELFNYFRDKAFPNLSARRLGVMPDLVLDMFINGYYLNVTKTQTTDVNRTYQEKDKRGGIFDAVFTRGDQSKLLTSRHDFKEKGLKEISDLIKQELTEGKALGLSHTYANVRINHVINLWGADFDSDGNLKAIYVTDSDSNASIGMKKYFVGVNSAGKVAISAKEIKEDNIGAQVLGLFTLSTGQDIWNQTN ; Enzyme Activity Endpoint Assay (purified): Fc = 299

Value of measured Enzyme Activity Endpoint Assay (purified): Fc for the entry PRT-381 (protein) MVTSVWTKGVTPPTNFTYGEDVLHAPYVANQGWYDITKTFNGKDDLLCGAATAGNMLHWWFDQNKEQIENYLKKHPEKQKINFNGEQMFDVKEAIDTKDSQLDSKLFEYFKEKAFPYLSTKHLGVFPDHVIDMFINGYRLSLTNHGPTPVKRGSKDPRGGIFDAVFTRGDQSKLLTNRHDFKEKTLKEISDLIKQELTEGKALGISHTYANVRINHVINLWGADFDAEGNLEAIYVTDSDSNPSIGMKKYFVGVNSNGKVAISAKEIEEDNIGAQVLGLFTLSTGQDIWNQTN : 334

Documented Enzyme Activity Endpoint Assay (purified): Fc of PRT-400 (protein) MVTSVWTKGVTPPADFTQGEDVFHAPYDANQGWYDITKTFNGKDDLLCGAATAGNMLHWWFDQNKEYIEAYLKKHPEKQKIMFGDQELLDVRKAINTKGSQKNSELFNYFRDKAFPNLSARRLGVMPDLVLDMFINGYYLNVTKTQTTDVNRTYQEKDKRGGIFDAVFTRGDQSKLLTSRHDFKEKGLKEISDLIKQELTEGKALGLSHTYANVRINHVINLWGADFDSDGNLKAIYVTDSDSNASIGMKKYFVGVNSAGKVAISAKEIKEDNIGAQVLGLFTLSTGQDIWNQTN : 333
